Target: HLA-E (Homo sapiens)
Construct: expressed in transfected cells; host or cells: mouse lymphoma cell line RMA-S/HLA-E/LFA-3, a gift from Chiara Romagnani, DRFZ Berlin
Sequence (P61769 21-119): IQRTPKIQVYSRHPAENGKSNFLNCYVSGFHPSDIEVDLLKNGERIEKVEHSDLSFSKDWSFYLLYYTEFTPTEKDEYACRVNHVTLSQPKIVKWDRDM
Sequence (P13747 22-358): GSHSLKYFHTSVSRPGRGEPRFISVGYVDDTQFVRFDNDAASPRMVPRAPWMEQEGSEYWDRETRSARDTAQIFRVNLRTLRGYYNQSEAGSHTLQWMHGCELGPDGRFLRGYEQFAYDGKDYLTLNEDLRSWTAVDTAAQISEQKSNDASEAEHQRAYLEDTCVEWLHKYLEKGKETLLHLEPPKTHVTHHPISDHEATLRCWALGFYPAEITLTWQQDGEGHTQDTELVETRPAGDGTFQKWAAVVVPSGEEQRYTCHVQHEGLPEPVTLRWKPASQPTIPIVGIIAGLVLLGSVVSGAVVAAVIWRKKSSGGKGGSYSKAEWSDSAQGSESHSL
Experiment: HLA-E stabilization by UL40 peptides on HLA-E-expressing RMA-S cells
Assay type: cell-based
Conditions: HLA-E expression on the cell surface of RMA-S cells incubated with UL40 peptide
Measured Mean MFI, listed per entry.
Lab note: write the figure by itself, no unit.

Give the reported Mean MFI for this sequence. VVAPRTLVL [HCMV UL40 peptide variant]
1840

Give the reported Mean MFI for this sequence. VMAPRTLLL [HCMV UL40 peptide variant]
3776

Give the reported Mean MFI for this sequence. VMTPRTLLL [HCMV UL40 peptide variant]
2519
